B1: PCMTD2 (parent)
chain: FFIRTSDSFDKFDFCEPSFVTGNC

Variants of: B1
Assay: protein stability index of a GFP-peptide fusion (GPS, HEK-293T) (PSI 1-6); higher = more stable;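 note: lentivirally expressed fusions sorted by FACS into six bins by GFP to DsRed ratio, PSI derived from sequencing read proportions per bin multiplied by bin number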
Conditions: c terminus: a fixed tail appended
measured parameter: protein stability index
Respond with the number and no other words.

Answered examples (5):
N23L
3.54
T5R
1.82
S18L
4.02
T21L
3.84
D10T
2.81

QUERY: Record request: protein stability index value, item `S18M`
RESULT: 3.36

QUERY: For `V20S` then?
RESULT: 2.47

QUERY: For `C15L` then?
RESULT: 3.34

QUERY: For `P17H` then?
RESULT: 3.52

QUERY: For `S18T` then?
RESULT: 2.54

QUERY: For `F1P` then?
RESULT: 2.6
